Numbers sourced from ChEMBL document CHEMBL5518248.

Tested on: Klebsiella pneumoniae
assay-procedure: Antibacterial activity against Klebsiella pneumoniae 15-1 assessed as inhibition of bacterial growth measured after 18 to 20 hrs by broth microdilution method
Format: functional
recorded-conditions: time 18-20 hrs
measured-endpoint: MIC

Check out these entries, answers already filled in.
{"smiles-data": "Cc1nc(-c2ccc(C(C)(C)C)cc2)ncc1C(=O)N[C@@H](CCN)C(=O)N(C)[C@@H]1C(=O)N[C@@H](C)C(=O)N[C@H](C(=O)OCC=O)Cc2ccc(OCCN)c(c2)-c2cc1ccc2OCCN.Cl.Cl.Cl.Cl", "measured-endpoint": "MIC", "measured-value": "≤ 0.03 µg/mL"}
{"smiles-data": "CCCCSSCc1ccc(-c2ncc(C(=O)N[C@@H](CCN)C(=O)N(C)[C@@H]3C(=O)N[C@@H](C)C(=O)N[C@H](C(=O)NCC#N)Cc4ccc(OCCN)c(c4)-c4cc3ccc4OCCN)c(C)n2)cc1.O=C(O)C(F)(F)F.O=C(O)C(F)(F)F.O=C(O)C(F)(F)F.O=C(O)C(F)(F)F", "measured-endpoint": "MIC", "measured-value": "≤ 0.03 µg/mL"}
{"smiles-data": "CCCSSCc1ccc(-c2ncc(C(=O)N[C@@H](CCN)C(=O)N(C)[C@@H]3C(=O)N[C@@H](C)C(=O)N[C@H](C(=O)NCC#N)Cc4ccc(OCCN)c(c4)-c4cc3ccc4OCCN)c(C)n2)cc1.O=C(O)C(F)(F)F.O=C(O)C(F)(F)F.O=C(O)C(F)(F)F.O=C(O)C(F)(F)F", "measured-endpoint": "MIC", "measured-value": "≤ 0.03 µg/mL"}
{"smiles-data": "Cc1nc(-c2ccc(C(C)(C)C)cc2)ncc1C(=O)N[C@@H](CCN)C(=O)N(C)[C@@H]1C(=O)N[C@@H](C)C(=O)N[C@H](C(=O)NCC=O)Cc2ccc(OCCN)c(c2)-c2cc1ccc2OCCN.Cl.Cl.Cl.Cl", "measured-endpoint": "MIC", "measured-value": "≤ 0.03 µg/mL"}

Kindly review the next molecule as well.
Prompt line: Query (molecule): `Cc1nc(-c2ccc(C(C)(C)C)cc2)ncc1C(=O)N[C@@H](CCN)C(=O)N(C)[C@@H]1C(=O)N[C@@H](C)C(=O)N[C@H](C(=O)NCP(=O)(O)O)Cc2ccc(OCCN)c(c2)-c2cc1ccc2OCCN.Cl.Cl.Cl.Cl` ; field requested: MIC
Response line: 0.5 µg/mL

----------
System: Klebsiella pneumoniae
assay-procedure: Antibacterial activity against Klebsiella pneumoniae 15-1 assessed as inhibition of bacterial growth measured after 18 to 20 hrs by broth microdilution method
Assay type: functional
recorded-conditions: time 18-20 hrs
measured-endpoint: MIC

{"smiles-data": "CCCSSc1ccc(-c2ncc(C(=O)N[C@@H](CCN)C(=O)N(C)[C@@H]3C(=O)N[C@@H](C)C(=O)N[C@H](C(=O)NCC#N)Cc4ccc(OCCN)c(c4)-c4cc3ccc4OCCN)c(C)n2)cc1.O=C(O)C(F)(F)F.O=C(O)C(F)(F)F.O=C(O)C(F)(F)F.O=C(O)C(F)(F)F", "measured-value": "≤ 0.03 µg/mL"}

Prompt line: Which MIC value belongs to `Cc1nc(-c2ccc(SSC(C)(C)C)cc2)ncc1C(=O)N[C@@H](CCN)C(=O)N(C)[C@@H]1C(=O)N[C@@H](C)C(=O)N[C@H](C(=O)O)Cc2ccc(OCCN)c(c2)-c2cc1ccc2OCCN.O=C(O)C(F)(F)F.O=C(O)C(F)(F)F.O=C(O)C(F)(F)F.O=C(O)C(F)(F)F` ?
Response line: ≤ 0.03 µg/mL

Prompt line: Another compound to look at: `CSSC(C)(C)c1ccc(-c2ncc(C(=O)N[C@@H](CCN)C(=O)N(C)[C@@H]3C(=O)N[C@@H](C)C(=O)N[C@H](C(=O)O)Cc4ccc(OCCN)c(c4)-c4cc3ccc4OCCN)c(C)n2)cc1.O=C(O)C(F)(F)F.O=C(O)C(F)(F)F.O=C(O)C(F)(F)F.O=C(O)C(F)(F)F`
Response line: ≤ 0.03 µg/mL

----------
Tested on: Klebsiella pneumoniae
assay-procedure: Antibacterial activity against Klebsiella pneumoniae 15-1 assessed as inhibition of bacterial growth measured after 18 to 20 hrs by broth microdilution method
Format: functional
recorded-conditions: time 18-20 hrs
Catalogue of MIC readings, one per entry.

Use the examples below as a reference point.
{"smiles-data": "C[C@@H](O)[C@H]1C(=O)N2C(C(=O)O)=C(S[C@@H]3CN[C@H](C(=O)N(C)C)C3)[C@H](C)[C@H]12", "MIC": "> 64 µg/mL"}
{"smiles-data": "CCCCCCCSSCc1ccc(-c2ncc(C(=O)N[C@@H](CCN)C(=O)N(C)[C@@H]3C(=O)N[C@@H](C)C(=O)N[C@H](C(=O)NCC#N)Cc4ccc(OCCN)c(c4)-c4cc3ccc4OCCN)c(C)n2)cc1.O=C(O)C(F)(F)F.O=C(O)C(F)(F)F.O=C(O)C(F)(F)F.O=C(O)C(F)(F)F", "MIC": "2 µg/mL"}

Turning now to a further record.
Prompt line: Quick check: MIC on Klebsiella pneumoniae, item `Cc1nc(-c2ccc(CSSC(C)(C)C)cc2)ncc1C(=O)N[C@@H](CCN)C(=O)N(C)[C@@H]1C(=O)N[C@@H](C)C(=O)N[C@H](C(=O)NCC#N)Cc2ccc(OCCN)c(c2)-c2cc1ccc2OCCN.O=C(O)C(F)(F)F.O=C(O)C(F)(F)F.O=C(O)C(F)(F)F.O=C(O)C(F)(F)F` ?
Response line: ≤ 0.03 µg/mL

----------
Tested on: Klebsiella pneumoniae
assay-procedure: Antibacterial activity against Klebsiella pneumoniae 15-5 assessed as inhibition of bacterial growth measured after 18 to 20 hrs by broth microdilution method
Format: functional
recorded-conditions: time 18-20 hrs
Recorded measurements of MIC, one per entry

{"compound": "Cc1nc(-c2ccc(CSSC(C)(C)C)cc2)nc(C)c1C(=O)N[C@@H](CCN)C(=O)N(C)[C@@H]1C(=O)N[C@@H](C)C(=O)N[C@H](C(=O)NCC#N)Cc2ccc(OCCN)c(c2)-c2cc1ccc2OCCN.O=C(O)C(F)(F)F.O=C(O)C(F)(F)F.O=C(O)C(F)(F)F.O=C(O)C(F)(F)F", "measured-value": "0.125 µg/mL"}
{"compound": "Cc1nc(-c2ccc(C(C)(C)C)cc2)ncc1CC(=O)N[C@@H](CCN)C(=O)N(C)[C@@H]1C(=O)N[C@@H](C)C(=O)N[C@H](C(=O)NCC#N)Cc2ccc(OCCN)c(c2)-c2cc1ccc2OCCN.O=C(O)C(F)(F)F.O=C(O)C(F)(F)F.O=C(O)C(F)(F)F.O=C(O)C(F)(F)F", "measured-value": "> 64 µg/mL"}
{"compound": "Cc1nc(-c2ccc(CSSC(C)(C)C)cc2)ncc1C(=O)N[C@@H](CCN)C(=O)N(C)[C@@H]1C(=O)N[C@@H](C)C(=O)N[C@H](C(=O)NCC#N)Cc2ccc(OCCN)c(c2)-c2cc1ccc2OCCN.O=C(O)C(F)(F)F.O=C(O)C(F)(F)F.O=C(O)C(F)(F)F.O=C(O)C(F)(F)F", "measured-value": "≤ 0.03 µg/mL"}
{"compound": "Cc1nc(-c2ccc(SSC(C)(C)C)cc2)ncc1C(=O)N[C@@H](CCN)C(=O)N(C)[C@@H]1C(=O)N[C@@H](C)C(=O)N[C@H](C(=O)O)Cc2ccc(OCCN)c(c2)-c2cc1ccc2OCCN.O=C(O)C(F)(F)F.O=C(O)C(F)(F)F.O=C(O)C(F)(F)F.O=C(O)C(F)(F)F", "measured-value": "≤ 0.03 µg/mL"}

// below: MIC requested for another compound
Prompt line: // query MIC value for entry C[C@@H](O)[C@H]1C(=O)N2C(C(=O)O)=C(S[C@@H]3CN[C@H](C(=O)N(C)C)C3)[C@H](C)[C@H]12 [MEROPENEM]
Response line: > 64 µg/mL

----------
The entries below are paired with their reported MIC.
Tested on: Pseudomonas aeruginosa
assay-procedure: Antibacterial activity against Pseudomonas aeruginosa 19-5 assessed as inhibition of bacterial growth measured after 18 to 20 hrs by broth microdilution method
Format: functional
recorded-conditions: time 18-20 hrs

A selection of reference data follows.
{"smiles-data": "Cc1nc(-c2ccc(C(C)(C)C)cc2)ncc1C(=O)N[C@@H](CCN)C(=O)N(C)[C@@H]1C(=O)N[C@@H](C)C(=O)N[C@H](C(=O)NN(C)CC#N)Cc2ccc(OCCN)c(c2)-c2cc1ccc2OCCN.Cl.Cl.Cl.Cl", "target-of-assay": "Pseudomonas aeruginosa", "measured-value": "> 64 µg/mL"}
{"smiles-data": "Cc1nc(-c2ccc(C(C)(C)C)cc2)ncc1C(=O)N[C@@H](CCN)C(=O)N(C)[C@@H]1C(=O)N[C@@H](C)C(=O)N[C@H](C(=O)OCC=O)Cc2ccc(OCCN)c(c2)-c2cc1ccc2OCCN.Cl.Cl.Cl.Cl", "target-of-assay": "Pseudomonas aeruginosa", "measured-value": "> 64 µg/mL"}
{"smiles-data": "Cc1nc(-c2ccc(C(C)(C)C)cc2)ncc1C(=O)N[C@@H](CCN)C(=O)N(C)[C@@H]1C(=O)N[C@@H](C)C(=O)N[C@H](NC(=O)CC#N)Cc2ccc(OCCN)c(c2)-c2cc1ccc2OCCN.O=C(O)C(F)(F)F.O=C(O)C(F)(F)F.O=C(O)C(F)(F)F.O=C(O)C(F)(F)F", "target-of-assay": "Pseudomonas aeruginosa", "measured-value": "> 64 µg/mL"}

Prompt line: Need MIC of `Cc1nc(-c2ccc(CSSC(C)(C)C)cc2)ncc1C(=O)N[C@@H](CCN)C(=O)N(C)[C@@H]1C(=O)N[C@@H](C)C(=O)N[C@H](C(=O)NCC#N)Cc2ccc(OCCN)c(c2)-c2cc1ccc2OCCN.O=C(O)C(F)(F)F.O=C(O)C(F)(F)F.O=C(O)C(F)(F)F.O=C(O)C(F)(F)F` , thanks.
Response line: 4 µg/mL
